target: T1, HLA-A*0201 molecule expressed on human tumor cell line T2 (human); test: T2 cell HLA-A2 stabilisation, FACS; ratio of 20% concentration to that of HIV pol 589-597 (lower = stronger)
T1 construct: surface HLA-A2 read with anti-HLA-A2 antibody BB7.2-PE by FACS; also called HLA-A2
Mark NOT MET for In vitro binding affinity (relative affinity) values under 4, and MET for everything at or above.

Worked examples, 5 binders total:
1. YTLGEFLYI [BIRC5-B2]    MET
2. FLPFGFILV (also called candidate peptide) [IL13RA2-B]    NOT MET
3. FLPFGFILPV (also called IL13R2A-L) [IL13RA2-L]    NOT MET
4. LTLGEFLKL [BIRC5-H]    MET
5. RVSSYLVPI [FOXM1-H]    NOT MET

Could you verify whether the entry LMDLSTTPL [FOXM1-H2] shows In vitro binding affinity (relative affinity) of no less than 4?
NOT MET

Is the recorded value of In vitro binding affinity (relative affinity) equal to or greater than 4 for this binder? LMDLSTTEV [FOXM1-B2]
NOT MET
